Just for reference, BigSolDB 2.1 is where these values come from.

# Condition info: in ethanol, 283.15 K
Value type: solubility (mole fraction)

>>> df
             compound_string  observed_value
0  Nc1cc(Cl)ccc1[N+](=O)[O-]          0.0164

* * *

# Condition info: in 2-butanone, 318.15 K
Value type: solubility (mole fraction)

             compound_string                  value_type  observed_value
0  Nc1cc(Cl)ccc1[N+](=O)[O-]  solubility (mole fraction)           0.234

* * *

# Condition info: in n-butanol, 288.15 K
Value type: solubility (mole fraction)

In [3]: df
Out[3]:
             compound_string                  value_type  observed_value
0  Nc1cc(Cl)ccc1[N+](=O)[O-]  solubility (mole fraction)          0.0209
